FYI, the data here is from the supplement of paper PMC6555819.

System: PPARg:RXRa 270nM:90nM, anti-RXR (NR concentration 270 nM, RXRa partner concentration 90 nM)
Test: PBM binding z-score (relative to random genomic background probes); higher = stronger binding; sequences stand for … in GC…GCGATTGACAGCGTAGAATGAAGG
If the reported PBM binding z-score equals or exceeds 3, assign MET. If not, assign NOT MET.

1. ATCTGTAGGTAAGACTCAGTTCAGTGAAGAACGC :: NOT MET
2. CCGACTGGGGCAGAAAAGTTACCATACCATCCGG :: NOT MET
3. CCTAGCAGGCGAATCTGGGTCACTCAAGGCTTGA :: NOT MET
4. TTACCATGGTGAGCTGAGGTCGTTGATCCAACTC :: NOT MET
5. GATACAGGGTCAAGGCCATAGTACGCGTATTGAT :: MET
6. CCTTACGGGTCAAGGTTATAGCTCGGGTGGTACG :: MET
7. TCTTGTAGATCCGCAGGTTAAGAAAGCTGGCCAA :: NOT MET
8. CCTACTGGGGCAAGGTCATTGATCAGTCAAAGCA :: MET
9. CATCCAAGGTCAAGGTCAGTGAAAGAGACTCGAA :: MET
10. CATAGCAGGCCAATCTGGGTCACTCAAGGCTTGA :: NOT MET
11. AGCTCTAGGTAAGACTCAGTTCAGTGAAGAACGC :: NOT MET
12. ATCTAAAGGTCGACGAGGTGAGTATACACCGTTT :: MET
13. TCGAGTCGGTTACCAATGGGGCATTCAGCTTTCT :: NOT MET
14. CGAACGAGGGCATGAGTTGATAGCCAATGCCGAT :: NOT MET
15. TCATATAGGTAAATGCTTGGTGAAAGTCCGATCT :: NOT MET
16. TCGAGTTGGTCAAAGGTCACACACTCGAAATGCG :: MET
17. CCTAGTTGGTTAGGAGGTCACACACCGGATATGA :: MET
18. AGTCAAAGTTCATGTAGGTAACGTAAGATATGCT :: MET
19. ATATGTAGGTTAGGTGGGGTCATTCAGACTAGGC :: MET
20. TCTTGTAGATCAATAGAGTTTAAGAAAGTGCGCT :: NOT MET
21. TCTATTAGTTGAAGGGCAACCAACGAGTCCGTTT :: NOT MET
22. CCTAGCAGGCCAATCTCGGTCACTCAAGGCTTGA :: NOT MET
23. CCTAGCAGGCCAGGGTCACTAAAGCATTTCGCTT :: NOT MET
24. CCTTACGGCTCAAGGTTATAGCACGGGTGGTACG :: NOT MET
25. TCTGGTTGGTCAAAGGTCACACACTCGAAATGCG :: MET
26. ATCTCTAGATAAAGATAGTTCAGTGAATGCAAAT :: NOT MET
27. TAGCCTAGGTCATTGGGCCAGTACAGTACGCATC :: MET
28. CCTGCTACGTCATGGTCAGCTAATCTACAGTATG :: NOT MET
29. TCATATAGGTAAACAGGTGAAACTCCGTAAGTTA :: MET
30. TCTTGTATATCAAAGGTTAAGAAAGCCGAAGCCT :: MET
31. ATCTCGAGGTAACAAGTTCAGTGAAAGAGAGGAC :: NOT MET
32. TAGCCTAGGTCGTTGGGCCAGTATAGTACGCATC :: NOT MET
33. GATACAGGGACAGCTAGAGGCCAGAGTATGGAAA :: NOT MET
34. ATACCAAGGTGATCGTGAGCTCGTTGATACTAAC :: NOT MET
35. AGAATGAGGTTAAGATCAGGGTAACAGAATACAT :: NOT MET
36. AGAACGAGGGCACGCTGAGTGGATAGCAGAGTAG :: NOT MET
37. TCGAGTAGGATACCAATGGGGCATTCAGCTTTCT :: NOT MET
38. CCTACTGGGCCAAAATGGTCATTGATGCCGATAA :: NOT MET
39. GCGACTGGGGCAAAGCAGGTTACCTTAAGGTTGG :: NOT MET
40. AAAATGAGGTTATACGTAGATCAGGGAAGAAAGT :: NOT MET
41. TAGCCTAGGTCATTGGGCCCGTATAGTACGCATC :: NOT MET
42. TCTCGGCGGACACGAAGGTCAGAGCTTTCCAGAG :: NOT MET

----------
System: RARb homodimer (NR concentration 270 nM)
Assay: PBM binding z-score (relative to random genomic background probes); higher = stronger binding; sequences stand for … in GC…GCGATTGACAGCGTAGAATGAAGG
measure: PBM binding z-score

1) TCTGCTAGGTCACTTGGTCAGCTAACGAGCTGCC :: 3.07
2) TAGGCTAGGTCATTGGGCCAGTATAGTACGCATC :: 2.94
3) ATCTCTAGGTAATCAAGTTCAGTGAATGCCGAAC :: 1.24
4) ACTATTAGTTGACTTAGGGCAGCCGATACGACGC :: 0.54
5) ATATGTAGGTTCTCGGGTCATTCAGTTTGCGCAT :: 2.61
6) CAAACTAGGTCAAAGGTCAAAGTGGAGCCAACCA :: 4.96
7) CTACCAAGGTGAACAAGGACGTTGATTACTATTC :: 0.951
8) CATACAGGGTCAGCTAGGCCAGCGTAGGGACGGC :: 3.43
9) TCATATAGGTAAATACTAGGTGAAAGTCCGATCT :: 0.493
10) ACTAGCTGGTCAGCTGAGGTCACACACAATTCGG :: 4.27
11) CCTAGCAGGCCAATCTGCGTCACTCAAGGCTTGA :: -0.405
12) TGTTAAAGTTCAAAGGTAACGTAAGTATCCACAC :: 3.61
13) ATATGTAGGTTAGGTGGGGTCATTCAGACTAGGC :: 3.74
14) AGAATGAGGTTATTAAGATCAGTGAATTGCGGTC :: 0.636
15) GCTAGTTGGTCACTAAAAGGTCACACACCGGTCG :: 5.51
16) CGTCCAAGGTCATAGGAGGTCAGTGACGACAGAT :: 5.23
17) TTACCAAGGTGAAGGTCGCTGATCCCTCTGTAGA :: 2.03
18) ATATCTAGGTTAGCTGGGGTCATTCAGACTAGGC :: 3.96
19) CATACATGGTCAGCTAGGCCAGAGTAGGGACGGC :: 0.263
20) CCTATTAGTTGACCATAAGGTCAACCGAAGCTCG :: 4.8
21) TGAATGAGGTTATAAGATCAGGGCACGTTGCAAA :: 1.02
22) CGTCCAAGGTCAAAGGAGGTCAGTGAAGACAGAT :: 5.57
23) AGTCAAAGCTCATCTAGGTAACGTAAGATATGCT :: -0.617
24) TCGTATAGGTAATACAGGTGAAAGTCGGCATCTA :: 0.603
25) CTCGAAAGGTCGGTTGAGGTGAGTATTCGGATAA :: 2.52
26) CGAACTAGGTCAAGGAAAGTGAATCTCCGCACGC :: 2.71
27) AATACCGGGTCATCGTAGGCCAGAGTACGCACAG :: 3.19
28) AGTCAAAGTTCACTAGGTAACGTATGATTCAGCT :: 3.72
29) CCGACTGGAGCAAGGTTACCATAACGCACAGCCA :: 1.15
30) AATACAGGGTCATCGTAGGCCAGAGTACGCACAG :: 3.55
31) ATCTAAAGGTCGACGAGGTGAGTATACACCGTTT :: 3.05
32) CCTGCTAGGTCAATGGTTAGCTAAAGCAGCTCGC :: 2.6
33) CCTACTGGGCCACGAAAGGTCATTGATTCAGTGA :: 4.53
34) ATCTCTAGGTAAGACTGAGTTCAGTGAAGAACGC :: 1.05
35) ACTATTAGTTGAGACGAGGGCAGCCGATAGGTTG :: 0.756

----------
Each item that follows carries a reported PBM binding z-score.
Test system: PPARg homodimer (NR concentration 180 nM)
Experiment: PBM binding z-score (relative to random genomic background probes); higher = stronger binding; sequences stand for … in GC…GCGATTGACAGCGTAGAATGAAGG
measure: PBM binding z-score

1) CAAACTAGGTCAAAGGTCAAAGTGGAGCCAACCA :: 7.6
2) GCTGCTATGTCAGGTTGGTCAGCTAACGGGTACG :: -0.452
3) TTACCAAGGTGAAATGTCGTTGATGCACGCCTTG :: 0.892
4) GCTGCTAGGTCAACTGATGATCAGCTAAAGCTCG :: 1.28
5) AGAATGAGGTTATTAAGATCTGGGAATTGCGGTC :: 0.467
6) CCTTACGGGTCACGAGGTTATAGAACGACGAGCG :: 2.71
7) TATACAGGGTCAAAGGCCAGAGTCCGAATGTCGA :: 2.08
8) AGAACGAGGGCACGCTGAGTTGACAGCAGAGTAG :: 0.462
